- ASSAY_OVERVIEW: in vitro
- CONDITION: rat, gh3-tre-luc cells, AC50 (uM) modified / 1000, Tox21_110001=Tox21_113158; viability, 1 nM T3 present, 24 h
PARAMETER: CC50 at 24 h

The compound identified as "C[C@]1(O)CC[C@H]2[C@@H]3CCC4=CC(=O)CC[C@]4(C)[C@@]3(F)[C@@H](O)C[C@@]21C" registered its CC50 at 24 h at > 50 µM

* * *

- ASSAY_OVERVIEW: in vitro
- CONDITION: rat, gh3-tre-luc cells, AC50 (uM) modified / 1000
Examples of molecules with documented CC50 at 24 h follow.

MOLECULE: Nc1ccc(Cl)c(Cl)c1
CC50 at 24 h: > 90 µM
--
MOLECULE: Cc1ccccc1S(=O)(=O)O [Sodium 2-methylbenzenesulfonate]
CC50 at 24 h: > 100 µM

The molecule identified as "CCCCc1nc(Cl)c(CO)n1Cc1ccc(-c2ccccc2-c2nn[nH]n2)cc1" registered its CC50 at 24 h at > 50 µM

The molecule identified as C=C1C[C@H]2[C@@H]3C=C(C)C4=CC(=O)CC[C@]4(C)[C@H]3CC[C@]2(C)[C@@]1(OC(C)=O)C(C)=O [Melengestrol acetate] registered its CC50 at 24 h at > 60 µM
